Test system: CCRIS mutagenicity, Ames/micronucleus/aberration tests
Assay: CCRIS mutagenicity studies
Conditions: Test System: AMES SALMONELLA TYPHIMURIUM; Strain/Indicator: TA100; Metabolic Activation: NONE
The source made the active and inactive calls. No rule for the calls is given here.
Thanks in advance; please answer with one of these: active, inactive

Example results:
Cc1c(C(=O)O)c(O)cc2c1C(=O)c1c(O)c([C@@H]3O[C@H](CO)[C@@H](O)[C@H](O)[C@H]3O)c(O)c(O)c1C2=O :: inactive
O=C1CCCc2ccc3c([N+](=O)[O-])c4ccccc4cc3c21 :: inactive
CC(C)NCC(O)c1ccc(NS(C)(=O)=O)cc1 (stereo not given) :: inactive
CC(=O)N(CC(O)CO)c1c(I)c(C(=O)NCCO)c(I)c(C(=O)NCC(O)CO)c1I (stereo not given) :: inactive

Query :: What call does the record list for c1ccc([C@H]2CO2)cc1 ?
Result :: active

Query :: In this assay, the call recorded for O=C1CN(/N=C/c2ccc([N+](=O)[O-])o2)C(=O)N1 was what?
Result :: active

Query :: Any idea what this test logged for O=[N+]([O-])c1ccc(-c2ccccc2)cc1 ?
Result :: inactive
